- System under test: UniProt:P05129
Readout label: IC50

compound_structure=Nc1c(N2CCN(C3CCCCC3)CC2)cc(Nc2ccc(C(=O)O)cc2)c2c1C(=O)c1ccccc1C2=O readout_label=IC50 result="> 10 µM"

###

- System under test: JAK3 (Homo sapiens)
- Sequence (P52333 1-1124): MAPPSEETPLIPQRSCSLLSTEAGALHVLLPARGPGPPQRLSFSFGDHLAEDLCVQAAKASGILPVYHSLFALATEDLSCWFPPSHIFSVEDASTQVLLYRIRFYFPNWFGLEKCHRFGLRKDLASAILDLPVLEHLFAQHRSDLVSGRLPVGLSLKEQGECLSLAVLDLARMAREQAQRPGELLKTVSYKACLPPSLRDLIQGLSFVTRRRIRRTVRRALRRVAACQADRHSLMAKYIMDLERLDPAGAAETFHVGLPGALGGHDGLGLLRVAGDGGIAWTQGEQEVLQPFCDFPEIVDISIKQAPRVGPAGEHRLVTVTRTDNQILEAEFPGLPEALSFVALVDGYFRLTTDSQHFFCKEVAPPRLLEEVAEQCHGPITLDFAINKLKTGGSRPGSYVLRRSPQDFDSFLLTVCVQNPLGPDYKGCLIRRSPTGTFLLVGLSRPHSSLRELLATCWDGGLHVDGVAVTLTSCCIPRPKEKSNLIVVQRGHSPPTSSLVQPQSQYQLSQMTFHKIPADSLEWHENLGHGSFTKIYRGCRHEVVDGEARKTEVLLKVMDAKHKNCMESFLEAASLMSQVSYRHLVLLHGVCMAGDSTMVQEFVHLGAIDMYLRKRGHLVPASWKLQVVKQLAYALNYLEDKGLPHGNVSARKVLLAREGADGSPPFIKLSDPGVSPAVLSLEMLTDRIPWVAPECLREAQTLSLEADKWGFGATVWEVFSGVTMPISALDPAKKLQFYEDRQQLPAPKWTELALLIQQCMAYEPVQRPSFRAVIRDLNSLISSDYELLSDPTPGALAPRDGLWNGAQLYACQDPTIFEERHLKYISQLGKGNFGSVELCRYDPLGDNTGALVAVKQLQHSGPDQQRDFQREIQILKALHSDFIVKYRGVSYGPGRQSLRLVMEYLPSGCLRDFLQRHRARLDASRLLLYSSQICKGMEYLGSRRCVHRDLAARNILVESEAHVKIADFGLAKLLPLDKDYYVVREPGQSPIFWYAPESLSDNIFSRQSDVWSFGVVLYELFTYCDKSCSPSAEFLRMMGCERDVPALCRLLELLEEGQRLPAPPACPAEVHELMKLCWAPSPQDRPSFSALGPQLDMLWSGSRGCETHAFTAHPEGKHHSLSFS
Readout label: IC50

compound="Nc1c(N2CCN(C3CCCCC3)CC2)cc(Nc2ccc(C(=O)O)cc2)c2c1C(=O)c1ccccc1C2=O [Compound 12]" result="> 10 µM"

###

- System under test: PKCmu/PKD1 (Homo sapiens, UniProt Q15139)
- Sequence (Q15139 whole entry): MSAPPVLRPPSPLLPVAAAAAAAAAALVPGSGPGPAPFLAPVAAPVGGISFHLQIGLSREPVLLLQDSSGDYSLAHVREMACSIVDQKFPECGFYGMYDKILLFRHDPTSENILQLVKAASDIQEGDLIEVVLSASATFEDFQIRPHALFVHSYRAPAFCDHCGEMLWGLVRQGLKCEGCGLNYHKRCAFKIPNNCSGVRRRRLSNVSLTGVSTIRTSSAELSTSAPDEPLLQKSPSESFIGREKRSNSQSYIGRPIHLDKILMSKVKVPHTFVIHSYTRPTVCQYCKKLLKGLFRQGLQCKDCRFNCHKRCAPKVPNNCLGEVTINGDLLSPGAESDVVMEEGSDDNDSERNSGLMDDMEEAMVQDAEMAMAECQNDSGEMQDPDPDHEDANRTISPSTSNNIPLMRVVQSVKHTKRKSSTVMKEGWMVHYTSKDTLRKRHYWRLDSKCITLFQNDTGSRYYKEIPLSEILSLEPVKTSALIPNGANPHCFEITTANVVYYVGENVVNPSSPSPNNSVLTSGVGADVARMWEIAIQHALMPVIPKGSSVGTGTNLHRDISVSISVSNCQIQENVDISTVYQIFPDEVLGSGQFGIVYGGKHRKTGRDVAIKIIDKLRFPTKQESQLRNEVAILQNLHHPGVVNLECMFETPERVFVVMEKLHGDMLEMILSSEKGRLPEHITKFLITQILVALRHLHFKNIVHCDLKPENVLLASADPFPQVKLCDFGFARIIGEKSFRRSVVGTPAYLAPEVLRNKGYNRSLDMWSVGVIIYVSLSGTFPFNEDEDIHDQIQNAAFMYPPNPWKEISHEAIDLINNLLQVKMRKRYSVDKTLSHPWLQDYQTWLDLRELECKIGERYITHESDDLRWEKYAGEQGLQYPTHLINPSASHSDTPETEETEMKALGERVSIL
- Protocol text: radiometric kinase assay, other kinases: PKCmu/PKD1
- Measurement context: duplicate
Readout label: IC50

compound_structure=Nc1c(N2CCN(C3CCCCC3)CC2)cc(Nc2ccc(C(=O)O)cc2)c2c1C(=O)c1ccccc1C2=O readout_label=IC50 result="> 10 µM"

###

- System under test: TrkB (Homo sapiens)
- Sequence (Q16620 32-822): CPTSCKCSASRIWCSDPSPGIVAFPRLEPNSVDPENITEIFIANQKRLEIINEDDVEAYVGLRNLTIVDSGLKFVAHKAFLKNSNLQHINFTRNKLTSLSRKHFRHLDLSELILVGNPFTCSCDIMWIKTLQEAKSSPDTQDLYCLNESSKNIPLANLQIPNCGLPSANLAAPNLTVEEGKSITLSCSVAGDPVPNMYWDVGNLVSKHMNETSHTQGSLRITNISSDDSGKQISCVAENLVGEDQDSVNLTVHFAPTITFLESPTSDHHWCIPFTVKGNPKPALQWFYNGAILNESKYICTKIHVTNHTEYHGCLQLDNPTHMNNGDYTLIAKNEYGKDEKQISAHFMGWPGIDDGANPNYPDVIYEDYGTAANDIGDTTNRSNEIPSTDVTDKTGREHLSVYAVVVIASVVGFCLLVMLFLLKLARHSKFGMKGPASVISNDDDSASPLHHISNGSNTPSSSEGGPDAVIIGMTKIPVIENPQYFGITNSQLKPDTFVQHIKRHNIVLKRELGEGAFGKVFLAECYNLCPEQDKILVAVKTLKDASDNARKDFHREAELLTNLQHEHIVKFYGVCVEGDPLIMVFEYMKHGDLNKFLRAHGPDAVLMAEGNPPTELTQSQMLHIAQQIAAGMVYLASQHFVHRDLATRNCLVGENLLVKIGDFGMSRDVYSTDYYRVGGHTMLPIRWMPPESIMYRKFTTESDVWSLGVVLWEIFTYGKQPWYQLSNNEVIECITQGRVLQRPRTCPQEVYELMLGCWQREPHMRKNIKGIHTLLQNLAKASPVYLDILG
- Protocol text: live whole cell based functional assay, BDNF stimulated TrkB activation
- Set-up: expressed in transfected cells
- Measurement context: triplicate
Readout label: IC50

molecule="Nc1c(N2CCN(C3CCCCC3)CC2)cc(Nc2ccc(C(=O)O)cc2)c2c1C(=O)c1ccccc1C2=O [Compound 12]" system_under_test="TrkB (Homo sapiens)" result="> 10 µM"

Ref: patent US9855265B2
